molecular target: 5-hydroxytryptamine receptor 2B (Homo sapiens) (UniProt P41595); conditions: Compound concentration 10 µM; call rule not given here
Sequence (P41595 whole entry): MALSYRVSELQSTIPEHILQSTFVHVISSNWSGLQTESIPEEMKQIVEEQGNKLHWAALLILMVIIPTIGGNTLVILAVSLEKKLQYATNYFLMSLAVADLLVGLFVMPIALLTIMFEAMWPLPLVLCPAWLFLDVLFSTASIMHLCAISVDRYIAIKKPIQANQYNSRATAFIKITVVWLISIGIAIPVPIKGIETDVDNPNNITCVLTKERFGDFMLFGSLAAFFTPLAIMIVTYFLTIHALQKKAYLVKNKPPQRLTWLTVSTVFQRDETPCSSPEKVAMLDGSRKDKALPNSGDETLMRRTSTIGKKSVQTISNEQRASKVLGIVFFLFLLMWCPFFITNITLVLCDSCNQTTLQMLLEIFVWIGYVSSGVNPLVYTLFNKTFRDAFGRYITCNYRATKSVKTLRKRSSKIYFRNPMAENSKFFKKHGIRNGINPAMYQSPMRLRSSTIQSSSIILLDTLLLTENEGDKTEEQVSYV
One label from this list, please: yes (1) = active, no (0) = inactive

[
  {
    "compound": "CC(C)C[C@H](NC(=O)N1CCCCCC1)C(=O)N[C@H](Cc1cn(C)c2ccccc12)C(=O)N[C@H](Cc1ccccn1)C(=O)O",
    "label-class": "no (0)"
  }
]

// return assay outcome for CN[C@@H]1CCc2[nH]c3ccc(C(N)=O)cc3c2C1
no (0)

// return assay outcome for CCCCN(CC)c1nc(C)nc2c1c(C)cn2-c1c(C)cc(C)cc1C
no (0)

// return assay outcome for CC[C@@H]1CN2C(=O)N(C)c3nc(-c4ccccc4)[nH]c3C2=N1
no (0)

// return assay outcome for N#Cc1cccc(C(=O)Nc2cc(-c3ccccc3)nn2-c2ccccc2)c1
no (0)

// return assay outcome for COc1ccc2cc(S(=O)(=O)N[C@H](CC(=O)N[C@H](Cc3ccc(CN4[C@H](C)CCC[C@@H]4C)cc3)C(=O)N(C)C(C)C)c3ccc4c(c3)OCO4)ccc2c1
no (0)

// return assay outcome for N#Cc1c(N)nc(SCc2csc(-c3ccc(Cl)cc3)n2)c(C#N)c1-c1ccc(OCCO)cc1
yes (1)

// return assay outcome for CN1CCC(C(=O)c2cccc(NC(=O)c3c(F)cc(F)cc3F)n2)CC1
yes (1)

// return assay outcome for CC(C)(N)C(=O)N[C@H](COCc1ccccc1)C(=O)N1CCC2(CC1)CN(S(C)(=O)=O)c1ccccc12
no (0)

// return assay outcome for c1ccc(N2CCN(Cc3nc4ccccc4[nH]3)CC2)nc1
no (0)

// return assay outcome for N#Cc1c[nH]c2c(C(=O)N3CCN(CCc4ccc(F)cc4)CC3)cccc12
yes (1)

// return assay outcome for CNC[C@H](O)c1ccc(O)c(O)c1
no (0)

// return assay outcome for Nc1nc2c(c(N3CCNCC3)n1)CCC1=C2[C@@H]2CCCC[C@@H]2O1
yes (1)

// return assay outcome for Cc1ccccc1C(=O)Nc1ccc(C(=O)N2CCCC(O)c3cc(Cl)ccc32)c(C)c1 (centres undefined)
yes (1)

// return assay outcome for CCCCN(CCCC)C(=O)CN1C[C@@H](c2ccc3c(c2)OCO3)[C@H](C(=O)O)[C@H]1c1ccc(OC)cc1
no (0)

// return assay outcome for CCCCC#Cc1nc(NC)c2ncn([C@@H]3O[C@H](CO)[C@@H](O)[C@H]3O)c2n1
no (0)

###

biological target: Alpha-1B adrenergic receptor (Homo sapiens); settings: Compound concentration 10 µM
Description: PDSP Primary Binding target: ADRA1B - Compounds are tested at 10 uM concentration, plate are incubated at room temperature in the dark for 90 minutes. Reaction are stopped by vacuum filtration onto 0.3% polyethyleneimine soaked filter mats using Filtermate harvester. Scintilation cocktail is then melted onto microwave-dried filters on a hot plate and the radio activity is counted in Microbia counter.
result-type: inhibition (%)
Numeric only. Scale: %

Look up inhibition for this molecule: CCc1nn2c(C)cc(C)nc2c1Cc1ccc(-c2nnc(C3CCNCC3)o2)cc1
-7.24

Look up inhibition for this molecule: c1cc(CN2CCCNCCNCCCNCC2)ccc1CN1CCCNCCNCCCNCC1
42.2

Look up inhibition for this molecule: NC[C@@H]1O[C@H](C23CC4CC(CC(C4)C2)C3)Cc2c1ccc(O)c2O
56.9

Look up inhibition for this molecule: CC(C)NCC(O)COc1ccc(CCOCC2CC2)cc1 (stereo not given)
19.5

Look up inhibition for this molecule: COc1ccc(/C=C/CCCCOc2ccc(C(=O)c3cccc(C(=O)O)c3)cc2CCC(=O)O)cc1
-5.5

Look up inhibition for this molecule: Cc1nn(C)c(C)c1-c1cccc2c1CC[C@H](N(C)C)C2
1.62

Look up inhibition for this molecule: Cc1cc(C)c(N)c(C#Cc2cccc(F)c2)n1
-8.91

###

biological target: UniProtKB P13945; details: Compound concentration 10 µM
Sequence (P13945 whole entry, looked up): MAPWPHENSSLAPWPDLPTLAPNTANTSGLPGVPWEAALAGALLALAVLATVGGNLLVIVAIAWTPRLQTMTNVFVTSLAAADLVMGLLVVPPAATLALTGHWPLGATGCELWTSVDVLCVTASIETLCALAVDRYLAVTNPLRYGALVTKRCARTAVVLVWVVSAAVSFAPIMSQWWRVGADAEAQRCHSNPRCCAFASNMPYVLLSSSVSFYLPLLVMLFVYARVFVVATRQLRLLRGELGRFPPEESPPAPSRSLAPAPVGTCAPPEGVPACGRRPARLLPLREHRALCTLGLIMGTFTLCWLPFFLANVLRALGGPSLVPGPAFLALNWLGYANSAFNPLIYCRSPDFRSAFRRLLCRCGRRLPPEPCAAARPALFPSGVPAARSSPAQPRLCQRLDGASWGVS
Description: PDSP Primary Binding target: ADRB3 - Compounds are tested at 10 uM concentration, plate are incubated at room temperature in the dark for 90 minutes. Reaction are stopped by vacuum filtration onto 0.3% polyethyleneimine soaked filter mats using Filtermate harvester. Scintilation cocktail is then melted onto microwave-dried filters on a hot plate and the radio activity is counted in Microbia counter.
result-type: inhibition (%)
Numeric only. Scale: %

Example compounds with recorded inhibition:
[
  {
    "smiles-representation": "Cc1cc(C)cc(C(=O)N(C)[C@H](Cc2ccc(-c3ccccc3)cc2)C(=O)N[C@@H](Cc2c[nH]c3ccccc23)C(=O)O)c1",
    "inhibition [%]": 34.4
  },
  {
    "smiles-representation": "CCCCC#Cc1nc(NC)c2ncn([C@@H]3O[C@H](CO)[C@@H](O)[C@H]3O)c2n1",
    "inhibition [%]": -8.99
  },
  {
    "smiles-representation": "CN(C)S(=O)(=O)c1ccc(NC(=S)N2CCC(C(O)(c3ccccc3)c3ccccc3)CC2)cc1",
    "inhibition [%]": 57.7
  },
  {
    "smiles-representation": "C[C@@H](NCCCc1cccc(C(F)(F)F)c1)c1cccc2ccccc12",
    "inhibition [%]": 48
  },
  {
    "smiles-representation": "Cc1csc2c(N[C@@H](C)CN3CCN(S(=O)(=O)c4ccc(Cl)c(Cl)c4)CC3)ncnc12",
    "inhibition [%]": 60.6
  },
  {
    "smiles-representation": "CC(C)NC(=O)c1ccc(C#Cc2ccncc2)cn1",
    "inhibition [%]": 29.8
  }
]

Look up inhibition for this compound: CC[C@@H]1CN2C(=O)N(C)c3nc(-c4ccccc4)[nH]c3C2=N1
19.4

Look up inhibition for this compound: N#Cc1c[nH]c2c(C(=O)N3CCN(CCc4ccc(F)cc4)CC3)cccc12
22.4

Look up inhibition for this compound: C/C(=N\NC(=O)[C@@H]1C(=O)NC[C@H]1c1ccccc1)c1cccc(Br)c1
3.81

###

biological target: Mu-type opioid receptor (Homo sapiens) (UniProt P35372); conditions: Compound concentration 10 µM
Sequence (P35372 whole entry): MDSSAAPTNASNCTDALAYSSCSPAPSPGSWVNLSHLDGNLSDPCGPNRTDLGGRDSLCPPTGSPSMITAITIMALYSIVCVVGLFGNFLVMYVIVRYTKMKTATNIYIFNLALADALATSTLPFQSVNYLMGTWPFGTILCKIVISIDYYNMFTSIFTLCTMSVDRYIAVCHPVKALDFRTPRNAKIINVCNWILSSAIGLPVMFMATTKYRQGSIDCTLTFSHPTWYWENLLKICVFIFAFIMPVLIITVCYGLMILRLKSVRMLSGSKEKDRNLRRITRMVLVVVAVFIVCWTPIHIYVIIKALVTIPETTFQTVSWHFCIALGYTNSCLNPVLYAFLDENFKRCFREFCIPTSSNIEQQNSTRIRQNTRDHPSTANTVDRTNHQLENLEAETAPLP
Description: PDSP Primary Binding target: OPRM1 - Compounds are tested at 10 uM concentration, plate are incubated at room temperature in the dark for 90 minutes. Reaction are stopped by vacuum filtration onto 0.3% polyethyleneimine soaked filter mats using Filtermate harvester. Scintilation cocktail is then melted onto microwave-dried filters on a hot plate and the radio activity is counted in Microbia counter.
result-type: inhibition (%)
Numeric only. Scale: %

[
  {
    "compound": "Cc1c(P(=S)(c2ccccc2)c2ccccc2)n2ccccc2[n+]1C/C=C/c1ccccc1",
    "unit-of-measure": "%",
    "inhibition": 87.3
  },
  {
    "compound": "CN(C)S(=O)(=O)c1ccc(NC(=S)N2CCC(C(O)(c3ccccc3)c3ccccc3)CC2)cc1",
    "unit-of-measure": "%",
    "inhibition": 2.22
  },
  {
    "compound": "O=c1ccc2ccc(OCCCCN3CCN(c4cccc5sccc45)CC3)cc2[nH]1",
    "unit-of-measure": "%",
    "inhibition": 26.8
  },
  {
    "compound": "CO[C@@H]1COCC[C@@H]1N[C@@H]1CC[C@@](C(=O)N2CCc3ncc(C(F)(F)F)cc3C2)(C(C)C)C1",
    "unit-of-measure": "%",
    "inhibition": 11.2
  },
  {
    "compound": "CN1CC(=O)N=C1NC(=O)Nc1cccc(Cl)c1",
    "unit-of-measure": "%",
    "inhibition": 5.37
  }
]

Query inhibition on Mu-type opioid receptor (Homo sapiens) (UniProt P35372) for O=C(O)c1n[nH]c2c1C[C@H]1C[C@@H]21
-4.24

Query inhibition on Mu-type opioid receptor (Homo sapiens) (UniProt P35372) for c1nc(CC2CCNCC2)c[nH]1
-6.55

Query inhibition on Mu-type opioid receptor (Homo sapiens) (UniProt P35372) for CCc1cc2c(cc1CC)CC(NC[C@H](O)c1ccc(O)c3[nH]c(=O)ccc13)C2
21

###

molecular target: Kappa-type opioid receptor (Homo sapiens) (UniProt P41145); details: Compound concentration 10 µM
Sequence (P41145 whole entry): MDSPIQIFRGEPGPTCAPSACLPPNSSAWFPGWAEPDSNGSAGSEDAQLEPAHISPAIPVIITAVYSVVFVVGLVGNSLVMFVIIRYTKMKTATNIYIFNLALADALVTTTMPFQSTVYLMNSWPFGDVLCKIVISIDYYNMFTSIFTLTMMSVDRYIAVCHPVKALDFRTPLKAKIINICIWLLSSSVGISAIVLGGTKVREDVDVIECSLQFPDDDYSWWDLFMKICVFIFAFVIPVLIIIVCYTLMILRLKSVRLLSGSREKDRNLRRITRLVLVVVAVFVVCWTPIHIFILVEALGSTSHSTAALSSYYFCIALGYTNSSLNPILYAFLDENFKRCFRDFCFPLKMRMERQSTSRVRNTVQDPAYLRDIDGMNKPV
Description: PDSP Primary Binding target: OPRK1 - Compounds are tested at 10 uM concentration, plate are incubated at room temperature in the dark for 90 minutes. Reaction are stopped by vacuum filtration onto 0.3% polyethyleneimine soaked filter mats using Filtermate harvester. Scintilation cocktail is then melted onto microwave-dried filters on a hot plate and the radio activity is counted in Microbia counter.
Each entry below carries its recorded inhibition.
Numeric only. Scale: %

Look up inhibition for this compound: Cc1cccc(NC(=O)N[C@@H]2N=C(c3ccccc3)c3ccccc3N(C)C2=O)c1
22.5

Look up inhibition for this compound: O=C(Cc1ccc(Cl)c(Cl)c1)N1CCCC[C@H]1CN1CCCC1
99.7

Look up inhibition for this compound: CN(C)S(=O)(=O)c1ccc(NC(=S)N2CCC(C(O)(c3ccccc3)c3ccccc3)CC2)cc1
12.3

Look up inhibition for this compound: C[C@H](Cc1cc2c(c(C(N)=O)c1)N(CCCO)CC2)NCCOc1ccccc1OCC(F)(F)F
4.22

Look up inhibition for this compound: COc1ccccc1N1CCN(CCCCNC(=O)c2ccc3ccccc3c2)CC1
35.6

###

biological target: Beta-2 adrenergic receptor (Homo sapiens) (UniProt P07550); conditions: Compound concentration 10 µM
Sequence (P07550 whole entry, looked up): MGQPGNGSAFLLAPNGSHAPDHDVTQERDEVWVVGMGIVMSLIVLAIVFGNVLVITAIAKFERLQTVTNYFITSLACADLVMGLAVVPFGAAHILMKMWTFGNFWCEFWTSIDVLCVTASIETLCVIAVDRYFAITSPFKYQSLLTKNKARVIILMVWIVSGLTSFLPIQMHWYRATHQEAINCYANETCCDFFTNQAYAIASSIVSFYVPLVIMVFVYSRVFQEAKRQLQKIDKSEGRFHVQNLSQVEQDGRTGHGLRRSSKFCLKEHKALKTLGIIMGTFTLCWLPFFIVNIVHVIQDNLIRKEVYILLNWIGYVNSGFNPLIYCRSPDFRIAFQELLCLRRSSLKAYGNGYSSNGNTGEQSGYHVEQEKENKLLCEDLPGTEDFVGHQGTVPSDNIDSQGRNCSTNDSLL
Description: PDSP Primary Binding target: ADRB2 - Compounds are tested at 10 uM concentration, plate are incubated at room temperature in the dark for 90 minutes. Reaction are stopped by vacuum filtration onto 0.3% polyethyleneimine soaked filter mats using Filtermate harvester. Scintilation cocktail is then melted onto microwave-dried filters on a hot plate and the radio activity is counted in Microbia counter.
Each entry below carries its recorded inhibition.
Numeric only. Scale: %

Example compounds with recorded inhibition:
[
  {
    "compound": "O=C(O)COc1cccc(CN(Cc2ccc(-n3cccn3)cc2)S(=O)(=O)c2cccnc2)c1",
    "system-name": "Beta-2 adrenergic receptor (Homo sapiens) (UniProt P07550)",
    "unit-of-measure": "%",
    "inhibition": -8.36
  },
  {
    "compound": "Cc1ccc(O)c([C@H](CCN(C(C)C)C(C)C)c2ccccc2)c1",
    "system-name": "Beta-2 adrenergic receptor (Homo sapiens) (UniProt P07550)",
    "unit-of-measure": "%",
    "inhibition": 19.5
  },
  {
    "compound": "CN(C(=O)Cc1ccc(Cl)c(Cl)c1)C(CN1CCCC1)c1cccc(OCC(=O)O)c1 (stereo unspecified)",
    "system-name": "Beta-2 adrenergic receptor (Homo sapiens) (UniProt P07550)",
    "unit-of-measure": "%",
    "inhibition": -5.04
  }
]

Query inhibition on Beta-2 adrenergic receptor (Homo sapiens) (UniProt P07550) for O=C(Cc1ccccc1)Nc1nc2ccc(Cl)cc2c2nc(-c3ccco3)nn12
2.33

Query inhibition on Beta-2 adrenergic receptor (Homo sapiens) (UniProt P07550) for COc1ccc2[nH]cc(CCNC(C)=O)c2c1
-1.29

Query inhibition on Beta-2 adrenergic receptor (Homo sapiens) (UniProt P07550) for N[C@H](C(=O)O)c1ccc(C(=O)O)c(C(=O)O)c1
6.53

Query inhibition on Beta-2 adrenergic receptor (Homo sapiens) (UniProt P07550) for CC(C)NCC(O)COc1cccc2[nH]ccc12 (stereo unspecified)
100

Query inhibition on Beta-2 adrenergic receptor (Homo sapiens) (UniProt P07550) for CCN(CC)CCCCC1CCN(CC(=O)N2c3ccccc3C(=O)Nc3cccnc32)CC1
5.55

Query inhibition on Beta-2 adrenergic receptor (Homo sapiens) (UniProt P07550) for O=C(O)CC/C=C\C[C@@H]1CO[C@H](c2ccccc2Cl)O[C@@H]1c1ccccc1O
-6.03

Query inhibition on Beta-2 adrenergic receptor (Homo sapiens) (UniProt P07550) for COc1cc(-n2cnc3cc(-c4ccc(Cl)cc4)sc3c2=O)ccc1OCCN1CCCC1
17.8

Query inhibition on Beta-2 adrenergic receptor (Homo sapiens) (UniProt P07550) for Cc1c(F)cccc1NC(=O)Nc1ccc(Cl)c(S(=O)(=O)[C@H]2CCCNC2)c1O
5.61

Query inhibition on Beta-2 adrenergic receptor (Homo sapiens) (UniProt P07550) for Cc1cc(NC(=O)Nc2ccc(N(C)C)cc2)c2cc(F)cc(F)c2n1
16.5
